Record form. Attribute: OD450. Fill in for each entry.
# subject_of_test: T1, naked peptide DYGSESTSSM (human)
# T1 peptide: DYGSESTSSM
# assay_explanation: ELISA naked peptide; scFv 1 ug/mL; repII
Give bare numbers, in OD.

Field: example entries. Status: answers known.
{"binder": "Comparative antibody 3 (Comp-3) scFv, SR_92R (Somovilla-Crespo et al. 2018), His-tagged (scFv) scFv: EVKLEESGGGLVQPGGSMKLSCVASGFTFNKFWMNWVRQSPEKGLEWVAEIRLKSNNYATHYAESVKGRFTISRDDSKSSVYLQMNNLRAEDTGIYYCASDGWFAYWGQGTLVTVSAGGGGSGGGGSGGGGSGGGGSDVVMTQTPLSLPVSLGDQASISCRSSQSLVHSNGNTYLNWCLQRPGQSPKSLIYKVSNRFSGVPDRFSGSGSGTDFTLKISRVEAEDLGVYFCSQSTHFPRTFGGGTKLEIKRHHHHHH", "experimental_readout": "OD450", "data_value": 0.03}
{"binder": "Comparative antibody 1 (Comp-1) scFv, SEQ ID NO: 10 from WO2023/037125 A1, His-tagged (scFv) scFv: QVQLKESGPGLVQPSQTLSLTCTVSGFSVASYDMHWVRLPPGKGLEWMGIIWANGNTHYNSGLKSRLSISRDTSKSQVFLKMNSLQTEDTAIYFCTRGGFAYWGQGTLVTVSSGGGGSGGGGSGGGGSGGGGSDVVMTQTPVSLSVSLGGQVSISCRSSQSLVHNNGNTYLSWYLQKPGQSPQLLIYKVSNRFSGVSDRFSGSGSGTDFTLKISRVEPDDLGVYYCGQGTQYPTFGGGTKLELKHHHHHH", "experimental_readout": "OD450", "data_value": 0.02}
{"binder": "CCR9_HUM2 scFv (humanized anti-CCR9 scFv, SEQ ID NO: 17 with C-terminal 6xHis tag) (scFv) scFv: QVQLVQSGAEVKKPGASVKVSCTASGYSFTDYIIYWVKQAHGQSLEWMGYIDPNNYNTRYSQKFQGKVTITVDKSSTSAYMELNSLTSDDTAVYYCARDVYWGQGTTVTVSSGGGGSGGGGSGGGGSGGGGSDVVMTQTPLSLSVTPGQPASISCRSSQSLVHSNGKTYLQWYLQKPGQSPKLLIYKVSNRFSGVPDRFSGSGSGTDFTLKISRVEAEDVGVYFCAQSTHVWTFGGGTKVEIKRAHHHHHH", "experimental_readout": "OD450", "data_value": 0.02}

# input binder: Comparative antibody 2 (Comp-2) scFv, 243LO326 (VH SEQ ID NO: 51 and VL SEQ ID NO: 52 of WO 2022/195028 A2), His-tagged (scFv) scFv: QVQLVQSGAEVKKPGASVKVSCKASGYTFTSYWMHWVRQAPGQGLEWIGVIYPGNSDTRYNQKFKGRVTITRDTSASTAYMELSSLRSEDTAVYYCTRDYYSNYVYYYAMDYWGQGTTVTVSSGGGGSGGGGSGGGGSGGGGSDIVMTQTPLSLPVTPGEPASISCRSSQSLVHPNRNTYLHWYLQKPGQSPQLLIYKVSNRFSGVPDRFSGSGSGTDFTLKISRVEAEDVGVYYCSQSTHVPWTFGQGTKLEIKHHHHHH ; wanted: its OD450
0.02
